Data origin: PubChem BioAssay AID248

System: L1210 leukemia ip in BDF1 mice, survival T/C
Assay: NCI In Vivo Anticancer Drug Screen. Data for tumor model L1210 Leukemia (intraperitoneal) in B6D2F1 (BDF1) mice
Details: endpoint: mean survival time; dose: 50.0 mg/kg/injection; schedule: Q01DX009 (ip); vehicle: Klucel (hydroxypropylcellulose) (HPC); higher = longer survival
Inconclusive results and toxic doses are left out.
Task for the reader: assign each of the following molecules its reported T/C.

Entry COc1cc(CCNC(=O)Cc2ccc(OCc3ccccc3)cc2)ccc1OCc1ccccc1 has what T/C?
91 % of control

Now try O=C(Nc1cccc(F)c1)Sc1ccc(Cl)cc1 .
108 % of control

CC(=O)N(C)N=Nc1ccc(C)cc1 , same question.
110 % of control

Consider next the molecule NC(=S)N/N=C(\c1ccccc1)c1cccc2ccccc12 in the same way.
91 % of control

And then Cc1cc(Cl)ccc1NC(=O)COc1ccc(Cl)cc1 , what is it?
90 % of control

Likewise for COc1ccc([N+](=O)[O-])cc1NC(=O)Nc1ccc(N(C)C(C)=O)cc1 ?
105 % of control

Same thing, different molecule: O=C1Nc2ccc(Cl)cc2C(c2ccccc2)=NC1O (configuration not stated)
101 % of control

----------
Could you please report measured T/C for the items listed next?
Test system: L1210 leukemia ip in BDF1 mice, survival T/C
Experiment: NCI In Vivo Anticancer Drug Screen. Data for tumor model L1210 Leukemia (intraperitoneal) in B6D2F1 (BDF1) mice
Settings: endpoint: mean survival time; dose: 100.0 mg/kg/injection; schedule: Q04DX002 (ip); vehicle: saline with Tween-80; higher = longer survival
Inconclusive results and toxic doses are left out.

Which T/C value belongs to COc1cc2c(cc1OC)N=Cc1cccn1C2 ?
90 % of control

Can you handle Oc1ccc(Br)cc1C=Nc1cccc(C(F)(F)F)c1 next?
102 % of control

Please do the same for O=C(O)CCc1ccc(-c2cccc([N+](=O)[O-])c2)o1 as well.
102 % of control

----------
Tested on: L1210 leukemia ip in BDF1 mice, survival T/C
Test: NCI In Vivo Anticancer Drug Screen. Data for tumor model L1210 Leukemia (intraperitoneal) in B6D2F1 (BDF1) mice
Settings: endpoint: mean survival time; dose: 100.0 mg/kg/injection; schedule: Q04DX003 (ip); vehicle: saline; higher = longer survival
Inconclusive results and toxic doses are left out.
Quantity Kind: T/C

Using the record for O=C1NC2CC=CCC12 (stereo not given) , report its T/C.
101 % of control

What do we get for CCOC(=O)C(=CN1CCCCCC1)C(=O)OCC ?
106 % of control

Field entry: COc1ccc(CCN=c2c3ccccc3ccc3ccccc23)cc1OC
111 % of control

Then this compound: CCN(CC)CCOc1ccccc1Br
100 % of control

One more compound: CC(N)(COC(=O)c1ccccc1)C(=O)O (stereo not given)
107 % of control

Another compound to check: Cc1cccnc1NC(=O)NCCCl
98 % of control

Request: Brc1ccc2c(c1)nc1n2CCC1
104 % of control

Entry OCC1OC(OCC2OC(OC3(CO)OC(CO)C(O)C3O)C(O)C(O)C2O)C(O)C(O)C1O (stereo not given) please
101 % of control

Follow-up entry: COc1cc2ccc3c(c2cc1OC)CN(C)CC3
103 % of control

Please give the result for CS(=N)(=O)c1ccccc1 (stereo not given) too.
97 % of control

Again, but for CC(=O)Nc1c(O)c(Cl)c(Cl)c(Cl)c1Cl
105 % of control

Now the compound COc1cc(C=C2c3ccccc3-c3ccccc32)ccc1O
99 % of control

Same again, this time with CSc1ccc(NC(=O)Nc2ccccc2C(N)=O)cc1
92 % of control

One more compound: CC12CCC(O)C(C)(C)C1=C(O)C(=O)C1=C2C(=O)CC2(C)C(=O)CCC12C (stereo not given)
93 % of control

Entry O=S(=O)(O)CCN(CCO)CCO please
97 % of control

Likewise for N=C(N[N+](=O)[O-])N(CCC(=O)O)N=O ?
96 % of control

Also COc1cc2c(cc1OC)C13CCN4CC5=CCOC6CCN2C1C6C5CC43 (stereo not given) ?
106 % of control

Also check Cc1cc(=O)c2c(=O)[nH][nH]c2[nH]1
95 % of control

Consider next the compound Cc1ccc(S(=O)(=O)NCCN)cc1 in the same way.
97 % of control

Another compound: CSc1ncc2cnccn12
101 % of control

Please answer likewise for CC(C)NNC(=O)C(N)CCC(=O)O (stereo not given)
91 % of control

Further, for CCCCCCC(O)C/C=C\CCCCCCCCO (stereo not given) ?
101 % of control

Quick one: CCSCN(C)C
103 % of control

Follow-up entry: Cc1cccc(Cl)[n+]1[O-]
97 % of control

Okay, and CC[N+](C)(CC)CCOC(=O)c1ccccc1Oc1ccc(C)cc1 ?
96 % of control

----------
Tested on: L1210 leukemia ip in BDF1 mice, survival T/C
Test: NCI In Vivo Anticancer Drug Screen. Data for tumor model L1210 Leukemia (intraperitoneal) in B6D2F1 (BDF1) mice
Settings: endpoint: mean survival time; dose: 400.0 mg/kg/injection; schedule: Q01DX009 (ip); vehicle: saline with Tween-80; higher = longer survival
Inconclusive results and toxic doses are left out.
Quantity Kind: T/C

What value of T/C on L1210 leukemia ip in BDF1 mice, survival T/C does COc1ccc(NC(=O)Nc2ccccc2OC)cc1 have?
98 % of control

Moving on to the next molecule: CC(C)(C)S(=O)(=O)C(C)(C)C
88 % of control

Please do the same for COc1cc(/C=C(/C#N)C(=O)N2CCOCC2)cc(OC)c1OC as well.
93 % of control

Moving on to the next molecule: O=C(O)CNC(=O)c1ccc([N+](=O)[O-])cc1
92 % of control

Next molecule up: CCCOC(=O)Nc1cccc(O)c1
88 % of control

Follow-up item: CC(=O)NS(=O)(=O)c1ccc(N)cc1
95 % of control

Okay, and CCCCOC(=O)c1ccc(NC(=O)NCCC)cc1 ?
95 % of control

What do we get for CCOC(=O)c1ccc(NC(=O)C(Br)C(Br)C(=O)O)cc1 (configuration not stated) ?
97 % of control

Next molecule: O=C1c2ccccc2C(=O)N1CNc1ccccc1Cl
100 % of control

Now try Brc1c(N=Cc2ccccc2)ccc2ccccc12 .
89 % of control

Follow-up item: COC(=O)c1ccc2oc(=O)cc(C)c2c1O
94 % of control

Now consider NCC(=O)c1ccc(OC(=O)c2ccccc2)cc1 and answer again.
103 % of control

----------
Test system: L1210 leukemia ip in BDF1 mice, survival T/C
Assay: NCI In Vivo Anticancer Drug Screen. Data for tumor model L1210 Leukemia (intraperitoneal) in B6D2F1 (BDF1) mice
Conditions: endpoint: mean survival time; dose: 200.0 mg/kg/injection; schedule: Q01DX009 (ip); vehicle: Klucel (hydroxypropylcellulose) (HPC); higher = longer survival
Toxic doses and inconclusive results are not listed.
Quantity Kind: T/C

Fill in the blank: the reported T/C of O=c1cc(-c2ccccc2)nc(Nc2nc3ccc([N+](=O)[O-])cc3[nH]2)[nH]1 is ____.
95 % of control

Consider next the compound CCOC(=O)C(CCNC(=O)c1ccccc1)C(=O)OCC in the same way.
91 % of control

Next compound: NS(=O)(=O)c1ccc(NC(=O)Nc2cccc(C(F)(F)F)c2)cc1
91 % of control

Similarly, ClCc1nc2ccccc2s1 ?
98 % of control

# repeat for CC(=O)Nc1ccc(C(C)C)cc1
95 % of control

Try CSC(=N)c1cccc(OCCOc2ccccc2)c1 next.
96 % of control

Moving on to CN(/N=N/c1nc[nH]c1C(N)=O)C(C)(C)C
96 % of control

And then O=[N+]([O-])c1ccc(CC(O)c2ccccc2Cl)cc1 (stereo unspecified) , what is it?
102 % of control

Please give the result for NC(=O)c1ccccc1NC(=O)Nc1cccc(C(F)(F)F)c1 too.
89 % of control

And for S=C(N/N=C/c1ccccc1Cl)Nc1ccccc1 ?
100 % of control

Okay, and Nc1nc(CCl)nc(Nc2ccccc2)n1 ?
86 % of control

Please give the result for O=C(NC1CCCCC1)Oc1cccc(NC(=S)Nc2ccccc2)c1 too.
97 % of control

# iterate: Cc1ccccc1SC(=O)Nc1cc(C(F)(F)F)ccc1Cl
98 % of control

Input CN1C(=O)CCS(=O)(=O)C1c1ccc(Cl)cc1 (stereo unspecified)
92 % of control

One more compound: CCOC(=O)C(CCc1cc2ccccc2[nH]1)(C(=O)OCC)N1C(=O)c2ccccc2C1=O
89 % of control

Also, COc1ccc(Cl)cc1NC(=O)NC(Cc1ccccc1)c1ccccc1 (stereo unspecified) please.
100 % of control
